The measurements presented in this section are drawn from patent US20260242735A1.

molecular target: human CD33 E337A (human, UniProt P20138 18-364); experiment: flow cytometry, alanine scan
Sequence (P20138 18-364 E337A limits assumed): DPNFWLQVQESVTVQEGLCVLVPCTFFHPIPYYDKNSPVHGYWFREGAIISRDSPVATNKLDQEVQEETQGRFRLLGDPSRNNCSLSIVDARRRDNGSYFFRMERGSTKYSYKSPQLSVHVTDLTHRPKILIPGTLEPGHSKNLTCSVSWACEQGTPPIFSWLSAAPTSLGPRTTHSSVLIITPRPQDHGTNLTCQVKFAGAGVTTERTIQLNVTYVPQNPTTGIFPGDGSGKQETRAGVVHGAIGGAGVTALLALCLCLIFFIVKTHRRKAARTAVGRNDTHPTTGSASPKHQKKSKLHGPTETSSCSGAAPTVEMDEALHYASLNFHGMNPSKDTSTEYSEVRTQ
Listed here are binders together with their documented Mean % WT Binding.

# Binder, Assay result
measured = [
    ("Refmab #2 (antibody, V domains shown, The alanine scan used IgG or Fab) VH: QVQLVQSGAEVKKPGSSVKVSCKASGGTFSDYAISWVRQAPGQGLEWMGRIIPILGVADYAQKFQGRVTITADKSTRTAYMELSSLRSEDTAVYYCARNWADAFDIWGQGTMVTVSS VL: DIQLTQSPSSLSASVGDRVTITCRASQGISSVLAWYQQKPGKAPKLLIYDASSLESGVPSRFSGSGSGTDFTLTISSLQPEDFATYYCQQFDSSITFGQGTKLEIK", "116 % of WT"),
    ("Refmab #1 (antibody, V domains shown, The alanine scan used IgG or Fab; also called hP67.6) VH: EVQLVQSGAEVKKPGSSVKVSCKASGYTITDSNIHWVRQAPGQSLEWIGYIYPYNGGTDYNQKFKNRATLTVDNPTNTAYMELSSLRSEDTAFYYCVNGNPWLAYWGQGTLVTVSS VL: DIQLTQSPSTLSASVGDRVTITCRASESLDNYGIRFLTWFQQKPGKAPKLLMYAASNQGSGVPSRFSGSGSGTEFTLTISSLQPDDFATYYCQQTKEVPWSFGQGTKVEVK", "91.1 % of WT"),
]

For reference, reported Mean % WT Binding for Refmab #4 (antibody, V domains shown, The alanine scan used IgG or Fab) VH: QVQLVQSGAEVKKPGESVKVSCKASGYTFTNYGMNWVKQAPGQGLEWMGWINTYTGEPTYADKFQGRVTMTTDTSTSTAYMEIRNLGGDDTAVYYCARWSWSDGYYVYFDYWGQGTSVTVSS VL: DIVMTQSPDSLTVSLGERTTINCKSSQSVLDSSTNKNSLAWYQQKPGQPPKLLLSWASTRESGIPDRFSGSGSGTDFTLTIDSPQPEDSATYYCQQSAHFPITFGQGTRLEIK stands at 106 % of WT
